B1: Histone-lysine N-methyltransferase SETD2, residues 2382 to 2430; numbered along this chain, Q9BYW2 (parent)
chain: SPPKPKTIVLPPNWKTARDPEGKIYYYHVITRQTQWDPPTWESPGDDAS

variants of: B1; assay: abundance fitness (aPCA) (normalised: wild type 0, dead -1); higher = more abundant; growth selection in yeast, the domain comes from the species named; details: Homo sapiens
readout-name: abundance fitness

W36T : -0.05

Continue with the variant presented below.
Value lookup for abundance fitness; key = `Q35Y`
-0.489

Entry source: the Human Domainome abundance scans (Beltran et al. 2025)
